Test system: 786-0 renal
Assay: NCI tumour cell line growth inhibition, 48 h
Entries and their TGI

structureString	TGI, µM
Nc1ncc(-c2ccc3ncnc(N4CCc5ccc(Cl)cc54)c3c2)cc1C(F)(F)F	12
O=C(NCCOCCOCCOCCNC(=O)c1cc2c(o1)C(=O)c1ccccc1C2=O)NC12CC3CC(CC(C3)C1)C2	11
COc1ccc(S(=O)(=O)Nc2c(/C=C\c3cc(OC)c(OC)c(OC)c3)ccc(OC)c2O)cc1	28
c1ccc(-c2c(-c3cccs3)[nH]c(-c3cccs3)c2-c2ccccn2)nc1	53
CCC1(CC)N=C(C(F)(F)F)c2cc(C(=O)C(F)(F)F)c3ccccc3c2N1	13.7
CCOC(=O)c1c(C)nc2c(c1N)/C(=C/c1ccccn1)C(=O)N2Cc1ccccc1	1.68
N#CC(C#N)=c1c2ccccc2c(=C(C#N)C#N)c2ccccc12	30.6
CN(C)Cc1ccc(NC(=O)c2cncc(C#Cc3cnc(N)c4ncccc34)c2)cc1F	3.6
O=C(/C=C/c1ccccn1)c1ccc(OCc2nnc(-c3ccc(Cl)cc3)o2)cc1	3.23
